Just for reference, paper PMC6272295 is where these values come from.

biological target: Aβ25-35 (Homo sapiens); construct: Aβ25-35 (25 µM) freshly prepared in PBS; purchased Sigma (St. Louis, MO, USA); experiment: Thioflavin T assay of Aβ25-35 aggregation; assay type: biochemical; conditions: 25-100 µM

Compound	Target or test system	effect on Th-T fluorescence (in words)
O=c1c(O)c(-c2ccc(O)cc2)oc2cc(O)cc(O)c12 [Kaempferol (8), kaempferol]	Aβ25-35 (Homo sapiens)	weak activity
C/C=C(/C)C(=O)O[C@@H]1[C@H](OC(C)=O)c2c(ccc3ccc(=O)oc23)OC1(C)C [Isopteryxin (4), isopteryxin]	Aβ25-35 (Homo sapiens)	weak activity
O=c1c(OC2OC(CO)C(O)C(O)C2O)c(-c2ccc(O)cc2)oc2cc(O)cc(O)c12 (centres unmarked) [Kaempferol-3-O-glucoside (13), kaempferol-3-O-glucoside]	Aβ25-35 (Homo sapiens)	weak activity

---

experiment: Scavenging of hydroxyl radical, 2-deoxyribose degradation assay; conditions: Fe3+/ascorbate/EDTA/H2O2 system; read-out: IC50 hydroxyl radical scavenging, Non Site-Specific
Response field label: string, one of Met (IC50 strictly below 800 µM) or Not met.

Molecule	Class
O=c1c(OC2OC(CO)C(O)C(O)C2O)c(-c2ccc(O)cc2)oc2cc(O)cc(O)c12 (stereo not drawn) [Kaempferol-3-O-glucoside (13), kaempferol-3-O-glucoside]	Not met
O=c1cc(-c2ccc(O)c(O)c2)oc2cc(O)cc(O)c12 [Luteolin (9), luteolin]	Met
O=c1c(O)c(-c2ccc(O)cc2)oc2cc(O)cc(O)c12 [Kaempferol (8), kaempferol]	Met
O=c1c(O)c(-c2ccc(O)c(O)c2)oc2cc(O)cc(O)c12 [Quercetin (12), quercetin]	Met
Oc1cc(O)c2c(c1)OC(c1ccc(O)c(O)c1)C(O)C2 (stereo not drawn) [Catechin (positive control), Catechin, reference compound]	Met
COC(=O)C1(O)CC(O)C(O)C(OC(=O)C=Cc2ccc(O)c(O)c2)C1 (stereo not drawn) [Methyl chlorogenate (10), methyl chlorogenate]	Not met

---

biological target: Aβ25-35 (Homo sapiens, UniProt P05067); construct: Aβ25-35 (25 µM) freshly prepared in PBS; purchased Sigma (St. Louis, MO, USA); assay: Thioflavin T assay of Aβ25-35 aggregation; assay type: biochemical; conditions: summary Table 4; on Decrease of ThT Fluorescence: key: +: Weak activity; ++: Strong activity

Molecule	Decrease of ThT Fluorescence
C/C=C(/C)C(=O)O[C@@H]1[C@H](OC(C)=O)c2c(ccc3ccc(=O)oc23)OC1(C)C [Isopteryxin (4), isopteryxin]	+
O=c1c(O)c(-c2ccc(O)cc2)oc2cc(O)cc(O)c12 [Kaempferol (8), kaempferol]	+
O=c1c(OC2OC(CO)C(O)C(O)C2O)c(-c2ccc(O)cc2)oc2cc(O)cc(O)c12 (centres unmarked) [Kaempferol-3-O-glucoside (13), kaempferol-3-O-glucoside]	+
CC(=O)OC1c2c(ccc3ccc(=O)oc23)OC(C)(C)C1OC(=O)C(C)(O)C(C)O (centres unmarked) [Hyuganin E (6), hyuganin E]	++
CC(=O)O[C@@H]1c2c(ccc3ccc(=O)oc23)OC(C)(C)[C@@H]1OC(=O)[C@@]1(C)O[C@H]1C [Isoepoxypteryxin (3), isoepoxypteryxin]	++

---

Biological target: AChE from Electrophorus electricus (Electrophorus electricus)
Construct: purchased Sigma (St. Louis, MO, USA)
Sequence (O42275 24-633): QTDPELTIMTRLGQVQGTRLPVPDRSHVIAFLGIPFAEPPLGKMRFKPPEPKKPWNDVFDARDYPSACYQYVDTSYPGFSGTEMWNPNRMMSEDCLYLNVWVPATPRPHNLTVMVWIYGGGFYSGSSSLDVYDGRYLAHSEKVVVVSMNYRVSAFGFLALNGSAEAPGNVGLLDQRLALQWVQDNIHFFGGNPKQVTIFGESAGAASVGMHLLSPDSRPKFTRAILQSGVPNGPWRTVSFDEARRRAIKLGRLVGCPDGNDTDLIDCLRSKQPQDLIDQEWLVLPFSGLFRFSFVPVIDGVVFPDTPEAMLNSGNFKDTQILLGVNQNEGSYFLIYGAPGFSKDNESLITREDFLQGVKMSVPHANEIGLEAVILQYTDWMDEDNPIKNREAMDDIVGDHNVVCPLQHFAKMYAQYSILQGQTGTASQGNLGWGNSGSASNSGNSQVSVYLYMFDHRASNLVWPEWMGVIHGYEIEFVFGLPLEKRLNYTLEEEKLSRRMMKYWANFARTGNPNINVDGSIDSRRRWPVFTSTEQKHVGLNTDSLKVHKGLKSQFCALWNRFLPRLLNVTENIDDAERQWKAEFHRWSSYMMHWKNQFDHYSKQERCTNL
Experiment: biochemical
Settings: Ellman's method
Protocol: AChEI activity was measured using Ellman’s method. AChE hydrolyzes the substrate ACTI into acetate and thiocholine. In a neutral and alkaline medium; thiocholine reacts with DTNB to give yellow colored 2-nitro-5-thiobenzoate, which can be detected spectrophotometrically at 405 nm. […] Then, 25 µL of AChE (0.25 U/mL in buffer A) was added and the absorbance was measured ten times every 16 s. […]

Molecule	IC50 in the AChEI assay
O=C(/C=C/c1ccc(O)c(O)c1)O[C@@H]1C[C@](O)(C(=O)O)C[C@@H](O)[C@H]1O	inactive
CCC(CCC(C)C1CCC2C3CC=C4CC(OC5OC(CO)C(O)C(O)C5O)CCC4(C)C3CCC12C)C(C)C (stereo not drawn) [β-Sitosterol-3-O-glucoside (5), β-sitosterol-3-O-glucoside]	inactive
CC1(C)CCC2(C)CCC3(C)C4CC=C5C(CCC(O)C5(C)C)C4(C)CCC3(C)C2C1 (stereo not drawn)	inactive
